biological target: Glycylpeptide N-tetradecanoyltransferase (Candida albicans (strain SC5314 / ATCC MYA-2876) (Yeast), UniProt P30418); assay: compound was tested for the inhibition potency against Candida albicans N-myristoyltransferase (NMT) using peptide substrate GNAASARR-NH2 at its apparent Km and myristoylCoA at 1 uM
Sequence (P30418 whole entry): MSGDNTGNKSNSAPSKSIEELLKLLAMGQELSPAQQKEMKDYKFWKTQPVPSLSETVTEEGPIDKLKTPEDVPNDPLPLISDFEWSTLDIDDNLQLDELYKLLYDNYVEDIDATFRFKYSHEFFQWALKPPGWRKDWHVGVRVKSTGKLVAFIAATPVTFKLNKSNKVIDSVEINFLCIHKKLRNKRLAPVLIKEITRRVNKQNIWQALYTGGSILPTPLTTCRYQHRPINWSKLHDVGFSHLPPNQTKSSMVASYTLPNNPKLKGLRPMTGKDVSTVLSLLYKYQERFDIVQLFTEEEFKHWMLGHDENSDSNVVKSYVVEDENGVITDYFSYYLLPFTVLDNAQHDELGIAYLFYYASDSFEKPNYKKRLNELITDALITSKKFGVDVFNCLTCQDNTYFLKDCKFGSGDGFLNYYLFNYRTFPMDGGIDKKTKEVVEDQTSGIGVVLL
Measured pIC50, listed per entry.
For clarity, pIC50 is expressed as the negative log10 of concentration in mol/L.

{"columns": ["Smiles repr", "pIC50"],
 "data": [
  ["Cc1nccn1CCCCc1ccc(CC(=O)N[C@@H](CO)Cc2ccc(OCCC3CCCCC3)c(CCCN)c2)cc1", 4.76]
]}

From here, focus on the item given below.
If you can, please state the reported pIC50 value of Cc1nccn1CCCCc1ccc(CC(=O)N[C@H](CO)Cc2ccc(OCCC3CCCCC3)c(CCCCN)c2)cc1 . 4.70
